biological target: hERG channel (Homo sapiens (Human), UniProt Q12809); assay: Automated Qpatch patch-clamp hERG assay
Sequence (Q12809 whole entry): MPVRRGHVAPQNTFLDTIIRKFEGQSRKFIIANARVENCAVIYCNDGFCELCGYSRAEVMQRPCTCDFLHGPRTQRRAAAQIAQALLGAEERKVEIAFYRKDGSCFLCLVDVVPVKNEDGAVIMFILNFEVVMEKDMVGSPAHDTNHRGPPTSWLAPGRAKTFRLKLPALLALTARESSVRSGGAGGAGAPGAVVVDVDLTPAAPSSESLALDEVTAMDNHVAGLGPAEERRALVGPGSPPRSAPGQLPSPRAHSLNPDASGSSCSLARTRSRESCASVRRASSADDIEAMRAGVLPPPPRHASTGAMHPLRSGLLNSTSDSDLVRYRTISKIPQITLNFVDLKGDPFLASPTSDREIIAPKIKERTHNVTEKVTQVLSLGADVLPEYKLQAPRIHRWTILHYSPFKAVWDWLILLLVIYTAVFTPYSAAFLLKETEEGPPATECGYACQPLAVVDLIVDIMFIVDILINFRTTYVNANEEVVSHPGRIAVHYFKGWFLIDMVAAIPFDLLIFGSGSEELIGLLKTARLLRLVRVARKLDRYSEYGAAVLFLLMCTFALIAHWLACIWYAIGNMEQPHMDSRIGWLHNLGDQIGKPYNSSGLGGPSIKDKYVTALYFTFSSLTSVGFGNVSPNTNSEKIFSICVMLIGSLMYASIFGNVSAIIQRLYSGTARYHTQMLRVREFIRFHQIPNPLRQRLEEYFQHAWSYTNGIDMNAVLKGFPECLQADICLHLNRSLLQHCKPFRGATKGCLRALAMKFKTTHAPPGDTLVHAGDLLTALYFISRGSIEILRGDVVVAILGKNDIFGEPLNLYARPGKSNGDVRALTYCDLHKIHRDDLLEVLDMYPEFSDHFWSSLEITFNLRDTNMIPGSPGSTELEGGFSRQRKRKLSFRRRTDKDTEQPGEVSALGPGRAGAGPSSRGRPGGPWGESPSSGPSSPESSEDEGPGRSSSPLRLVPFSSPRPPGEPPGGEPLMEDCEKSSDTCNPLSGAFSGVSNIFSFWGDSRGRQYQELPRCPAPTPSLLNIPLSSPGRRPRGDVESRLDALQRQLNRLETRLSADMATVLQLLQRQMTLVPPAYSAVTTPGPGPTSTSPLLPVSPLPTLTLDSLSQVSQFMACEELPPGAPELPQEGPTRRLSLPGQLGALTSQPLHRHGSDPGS
For each record, write down the corresponding IC50.

# example entries with known answers
> print(dat)
                                   compound  experimental.value
1  CC(C)n1nnc2cc(-c3nc(-c4cccc5c4OCCC5)no3)ccc21 [Compound 304]             > 10 µM
2  CC(C)Nc1ccc(-c2ncc(-c3ccnc(O)c3)cn2)cc1C#N [Compound 743]             > 10 µM
3  N#Cc1cc(-c2nc(-c3ccc4c(c3)NC(=O)C4)no2)ccc1NCC1CC1 [Compound 497]             > 10 µM
4  CC(F)(F)CNc1ccc(-c2nnc(-c3ccc4[nH]cnc4c3)o2)cc1C#N [Compound 520]             > 10 µM

Any idea what IC50 was measured for CC(C)Oc1ccc(-c2ncc(-c3cccnc3)cn2)cc1C#N [Compound 738] ?
> 10 µM
